# method_notes: In vitro metabolism in human intestinal microsomes
# Type: in vitro ADME
# measurement_setup: human, pooled intestinal microsomes
attribute_measured: microsomal CLint (µL/min/mg)

[[record]]
compound = "CCN1CCN(Cc2ccc(Nc3ncc(F)c(-c4cc(F)c5nc(C)n(C(C)C)c5c4)n3)nc2)CC1 [Abemaciclib, abemaciclib]"
value_measured = 4.29

[[record]]
compound = "CN(C)C(=O)c1cc2cnc(Nc3ccc(N4CCNCC4)cn3)nc2n1C1CCCC1 [Ribociclib, ribociclib]"
value_measured = 3.64

[[record]]
compound = "CC(=O)c1c(C)c2cnc(Nc3ccc(N4CCNCC4)cn3)nc2n(C2CCCC2)c1=O [Palbociclib, palbociclib]"
value_measured = 3.99


----------
# tested_system: UniProtKB Q9UNQ0
# method_notes: Bidirectional permeability and efflux, MDCKII-ABCG2 monolayers
# Type: in vitro ADME
# measurement_setup: pH 7.4
Entries and their measured Papp A→B at 1 h, 1 µM follow.
attribute_measured: Papp A→B at 1 h, 1 µM (×10⁻⁶ cm/s)

[[record]]
smiles = "CCN1CCN(Cc2ccc(Nc3ncc(F)c(-c4cc(F)c5nc(C)n(C(C)C)c5c4)n3)nc2)CC1"
result_unit = "×10⁻⁶ cm/s"
value_measured = 7.98

[[record]]
smiles = "CN(C)C(=O)c1cc2cnc(Nc3ccc(N4CCNCC4)cn3)nc2n1C1CCCC1"
result_unit = "×10⁻⁶ cm/s"
value_measured = 5.9

[[record]]
smiles = "CC(=O)c1c(C)c2cnc(Nc3ccc(N4CCNCC4)cn3)nc2n(C2CCCC2)c1=O"
result_unit = "×10⁻⁶ cm/s"
value_measured = 7.73


----------
# method_notes: Passive transcellular permeability, parental MDCKII monolayers
# Type: in vitro ADME
# measurement_setup: dog, MDCK, pH 7.4
Readings of Papp A→B at 1 h, 1 µM for the listed molecules
attribute_measured: Papp A→B at 1 h, 1 µM (×10⁻⁶ cm/s)

[[record]]
smiles = "CCN1CCN(Cc2ccc(Nc3ncc(F)c(-c4cc(F)c5nc(C)n(C(C)C)c5c4)n3)nc2)CC1"
value_measured = 9.09

[[record]]
smiles = "CC(=O)c1c(C)c2cnc(Nc3ccc(N4CCNCC4)cn3)nc2n(C2CCCC2)c1=O"
value_measured = 9.38

[[record]]
smiles = "CN(C)C(=O)c1cc2cnc(Nc3ccc(N4CCNCC4)cn3)nc2n1C1CCCC1"
value_measured = 7.17


----------
The reader will find reported Papp A→B at 1 h, 1 µM values listed item by item below.
# tested_system: ABCB1 (Homo sapiens, UniProt P08183)
# Sequence (P08183 whole entry): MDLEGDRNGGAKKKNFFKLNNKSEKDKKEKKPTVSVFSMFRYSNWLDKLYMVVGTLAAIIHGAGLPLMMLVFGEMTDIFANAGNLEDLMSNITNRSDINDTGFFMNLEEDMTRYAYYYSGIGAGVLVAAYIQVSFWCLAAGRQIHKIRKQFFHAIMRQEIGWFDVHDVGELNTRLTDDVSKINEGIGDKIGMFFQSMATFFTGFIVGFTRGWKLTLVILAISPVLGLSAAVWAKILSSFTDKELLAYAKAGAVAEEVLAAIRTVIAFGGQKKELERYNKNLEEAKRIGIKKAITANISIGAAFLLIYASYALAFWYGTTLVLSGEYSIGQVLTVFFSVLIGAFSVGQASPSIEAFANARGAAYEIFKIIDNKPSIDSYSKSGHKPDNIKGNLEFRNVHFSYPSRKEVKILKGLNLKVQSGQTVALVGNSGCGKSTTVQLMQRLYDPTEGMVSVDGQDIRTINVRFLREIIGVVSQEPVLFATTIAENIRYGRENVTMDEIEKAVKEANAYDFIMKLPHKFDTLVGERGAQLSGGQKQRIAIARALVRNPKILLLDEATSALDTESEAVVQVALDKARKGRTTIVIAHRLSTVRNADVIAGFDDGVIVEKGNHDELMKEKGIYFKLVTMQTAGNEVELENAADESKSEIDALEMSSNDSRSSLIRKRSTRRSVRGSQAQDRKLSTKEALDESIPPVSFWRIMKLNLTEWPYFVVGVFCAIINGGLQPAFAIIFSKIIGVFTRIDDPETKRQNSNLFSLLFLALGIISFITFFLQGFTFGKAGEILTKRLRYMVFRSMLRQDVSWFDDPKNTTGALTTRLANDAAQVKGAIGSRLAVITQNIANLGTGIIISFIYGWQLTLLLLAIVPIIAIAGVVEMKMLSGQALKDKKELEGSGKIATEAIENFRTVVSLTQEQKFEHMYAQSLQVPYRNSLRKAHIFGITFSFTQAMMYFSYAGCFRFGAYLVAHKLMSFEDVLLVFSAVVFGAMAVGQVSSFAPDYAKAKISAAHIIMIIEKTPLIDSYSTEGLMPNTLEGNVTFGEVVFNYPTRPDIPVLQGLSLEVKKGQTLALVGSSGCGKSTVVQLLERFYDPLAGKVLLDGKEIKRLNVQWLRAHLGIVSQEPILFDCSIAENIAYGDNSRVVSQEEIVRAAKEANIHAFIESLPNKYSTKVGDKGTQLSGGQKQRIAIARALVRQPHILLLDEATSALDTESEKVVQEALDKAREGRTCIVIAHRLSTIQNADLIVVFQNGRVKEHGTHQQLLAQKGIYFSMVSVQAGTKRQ
# method_notes: Bidirectional permeability and efflux, MDCKII-ABCB1 monolayers
# Type: in vitro ADME
# measurement_setup: human, MDCK-MDR1, pH 7.4
attribute_measured: Papp A→B at 1 h, 1 µM (×10⁻⁶ cm/s)

[[record]]
compound = "CN(C)C(=O)c1cc2cnc(Nc3ccc(N4CCNCC4)cn3)nc2n1C1CCCC1 [Ribociclib, ribociclib]"
tested_system = "ABCB1 (Homo sapiens, UniProt P08183)"
value_measured = 1.77

[[record]]
compound = "CCN1CCN(Cc2ccc(Nc3ncc(F)c(-c4cc(F)c5nc(C)n(C(C)C)c5c4)n3)nc2)CC1 [Abemaciclib, abemaciclib]"
tested_system = "ABCB1 (Homo sapiens, UniProt P08183)"
value_measured = 5.65

[[record]]
compound = "CC(=O)c1c(C)c2cnc(Nc3ccc(N4CCNCC4)cn3)nc2n(C2CCCC2)c1=O [Palbociclib, palbociclib]"
tested_system = "ABCB1 (Homo sapiens, UniProt P08183)"
value_measured = 5.56


----------
# method_notes: Binding to brain tumor tissues
# Assay type: in vitro ADME
# measurement_setup: human, patient brain tumor tissue
Reported fraction unbound values follow for various molecules
attribute_measured: fraction unbound

[[record]]
smiles = "CC(=O)c1c(C)c2cnc(Nc3ccc(N4CCNCC4)cn3)nc2n(C2CCCC2)c1=O"
attribute_measured = "fraction unbound"
value_measured = 0.015

[[record]]
smiles = "CN(C)C(=O)c1cc2cnc(Nc3ccc(N4CCNCC4)cn3)nc2n1C1CCCC1"
attribute_measured = "fraction unbound"
value_measured = 0.044

[[record]]
smiles = "CCN1CCN(Cc2ccc(Nc3ncc(F)c(-c4cc(F)c5nc(C)n(C(C)C)c5c4)n3)nc2)CC1"
attribute_measured = "fraction unbound"
value_measured = 0.006


----------
# method_notes: Binding to patient plasma proteins
# Type: in vitro ADME
# measurement_setup: human, plasma of patients with cancer
// fraction unbound lookup, one value per entry
attribute_measured: fraction unbound

[[record]]
smiles = "CCN1CCN(Cc2ccc(Nc3ncc(F)c(-c4cc(F)c5nc(C)n(C(C)C)c5c4)n3)nc2)CC1"
attribute_measured = "fraction unbound"
value_measured = 0.06

[[record]]
smiles = "CN(C)C(=O)c1cc2cnc(Nc3ccc(N4CCNCC4)cn3)nc2n1C1CCCC1"
attribute_measured = "fraction unbound"
value_measured = 0.125

[[record]]
smiles = "CC(=O)c1c(C)c2cnc(Nc3ccc(N4CCNCC4)cn3)nc2n(C2CCCC2)c1=O"
attribute_measured = "fraction unbound"
value_measured = 0.126


----------
# tested_system: ABCG2 (Homo sapiens)
# Sequence (Q9UNQ0 whole entry): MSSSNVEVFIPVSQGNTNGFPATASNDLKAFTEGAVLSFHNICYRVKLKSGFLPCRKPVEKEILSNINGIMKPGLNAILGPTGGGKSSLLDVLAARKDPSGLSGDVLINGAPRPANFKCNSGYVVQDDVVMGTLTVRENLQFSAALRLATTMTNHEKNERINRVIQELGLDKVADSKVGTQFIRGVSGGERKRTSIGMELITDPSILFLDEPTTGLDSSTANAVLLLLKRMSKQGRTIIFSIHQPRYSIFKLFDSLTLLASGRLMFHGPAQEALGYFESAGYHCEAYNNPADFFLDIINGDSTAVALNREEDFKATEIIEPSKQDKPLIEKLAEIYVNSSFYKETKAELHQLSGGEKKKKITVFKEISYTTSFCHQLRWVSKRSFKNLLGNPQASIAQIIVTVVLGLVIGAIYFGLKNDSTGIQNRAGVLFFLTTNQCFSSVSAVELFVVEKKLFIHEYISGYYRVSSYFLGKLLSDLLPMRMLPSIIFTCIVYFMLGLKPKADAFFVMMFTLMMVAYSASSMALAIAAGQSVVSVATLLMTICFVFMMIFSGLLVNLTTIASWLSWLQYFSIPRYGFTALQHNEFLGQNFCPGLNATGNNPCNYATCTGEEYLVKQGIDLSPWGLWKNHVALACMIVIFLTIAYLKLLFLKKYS
# method_notes: Bidirectional permeability and efflux, MDCKII-ABCG2 monolayers
# Assay type: in vitro ADME
# measurement_setup: with Ko143 1 µM in the top chamber
attribute_measured: efflux ratio at 1 h, 1 µM

[[record]]
smiles = "COc1cc2ncnc(Nc3ccc(F)c(Cl)c3)c2cc1OCCCN1CCOCC1"
value_measured = 8.86

